Let's look at some molecules and their measured inhibition at 1 µM.
Test Target: panel of 255 wild-type kinases (Homo sapiens, UniProt P08581)
Sequence (P08581 25-1390): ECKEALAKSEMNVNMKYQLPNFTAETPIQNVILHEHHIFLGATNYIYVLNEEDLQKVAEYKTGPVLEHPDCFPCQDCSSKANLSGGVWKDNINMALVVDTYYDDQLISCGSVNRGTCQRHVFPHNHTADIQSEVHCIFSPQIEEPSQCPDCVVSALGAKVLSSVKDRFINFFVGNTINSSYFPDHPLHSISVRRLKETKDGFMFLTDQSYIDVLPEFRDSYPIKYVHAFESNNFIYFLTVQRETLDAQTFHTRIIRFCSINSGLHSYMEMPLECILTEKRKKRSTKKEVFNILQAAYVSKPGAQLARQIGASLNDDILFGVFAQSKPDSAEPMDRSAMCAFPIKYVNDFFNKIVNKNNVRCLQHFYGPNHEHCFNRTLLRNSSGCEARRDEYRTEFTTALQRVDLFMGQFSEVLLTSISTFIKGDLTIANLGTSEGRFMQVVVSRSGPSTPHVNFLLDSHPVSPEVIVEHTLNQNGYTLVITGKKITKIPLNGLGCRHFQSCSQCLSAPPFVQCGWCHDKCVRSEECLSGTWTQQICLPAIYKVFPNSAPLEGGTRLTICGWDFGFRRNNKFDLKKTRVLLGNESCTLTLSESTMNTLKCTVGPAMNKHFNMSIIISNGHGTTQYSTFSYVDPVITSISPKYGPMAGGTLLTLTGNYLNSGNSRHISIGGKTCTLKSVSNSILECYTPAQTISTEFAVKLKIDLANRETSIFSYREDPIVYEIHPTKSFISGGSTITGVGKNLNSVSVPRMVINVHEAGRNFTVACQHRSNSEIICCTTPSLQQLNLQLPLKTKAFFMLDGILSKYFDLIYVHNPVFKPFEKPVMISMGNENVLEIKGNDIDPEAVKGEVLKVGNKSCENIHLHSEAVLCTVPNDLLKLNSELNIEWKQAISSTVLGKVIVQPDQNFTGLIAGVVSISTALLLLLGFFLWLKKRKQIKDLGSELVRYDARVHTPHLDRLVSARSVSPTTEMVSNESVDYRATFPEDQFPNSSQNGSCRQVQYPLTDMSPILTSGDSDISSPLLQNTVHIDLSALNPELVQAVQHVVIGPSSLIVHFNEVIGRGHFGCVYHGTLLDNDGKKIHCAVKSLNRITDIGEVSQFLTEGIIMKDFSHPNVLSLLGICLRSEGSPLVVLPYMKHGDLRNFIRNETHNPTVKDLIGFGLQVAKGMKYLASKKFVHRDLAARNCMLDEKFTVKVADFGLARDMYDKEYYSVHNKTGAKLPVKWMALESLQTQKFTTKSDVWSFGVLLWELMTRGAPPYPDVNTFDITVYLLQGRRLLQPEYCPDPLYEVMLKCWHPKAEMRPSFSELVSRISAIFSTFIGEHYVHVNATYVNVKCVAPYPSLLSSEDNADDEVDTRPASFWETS
Assay Remarks: Kinase panel profiling at 1 µmol/L (MSA or IMAP), percentage inhibition
Format: biochemical
Condition Set: MET; 1 µmol/L single concentration

Molecule: Cn1cnc2c(F)c(Nc3ccc(Br)cc3Cl)c(C(=O)NOCCO)cc21 [selumetinib]
Unit Info: %
inhibition at 1 µM: -0.807
//
Molecule: Cn1cnc2c(F)c(Nc3ccc(Br)cc3F)c(C(=O)NOCCO)cc21 [binimetinib]
Unit Info: %
inhibition at 1 µM: 0.851
//
Molecule: O=C(Nc1cnn2ccc(N3CCC[C@@H]3c3cc(F)ccc3F)nc12)N1CC[C@H](O)C1 [larotrectinib]
Unit Info: %
inhibition at 1 µM: -4
//
Molecule: COC(=O)N[C@@H](C)CNc1nccc(-c2cn(C(C)C)nc2-c2cc(Cl)cc(NS(C)(=O)=O)c2F)n1 [encorafenib]
Unit Info: %
inhibition at 1 µM: 2.82
